- System: Tyrosine-protein phosphatase non-receptor type 1 (Homo sapiens) (UniProt P18031)
- Sequence (whole entry): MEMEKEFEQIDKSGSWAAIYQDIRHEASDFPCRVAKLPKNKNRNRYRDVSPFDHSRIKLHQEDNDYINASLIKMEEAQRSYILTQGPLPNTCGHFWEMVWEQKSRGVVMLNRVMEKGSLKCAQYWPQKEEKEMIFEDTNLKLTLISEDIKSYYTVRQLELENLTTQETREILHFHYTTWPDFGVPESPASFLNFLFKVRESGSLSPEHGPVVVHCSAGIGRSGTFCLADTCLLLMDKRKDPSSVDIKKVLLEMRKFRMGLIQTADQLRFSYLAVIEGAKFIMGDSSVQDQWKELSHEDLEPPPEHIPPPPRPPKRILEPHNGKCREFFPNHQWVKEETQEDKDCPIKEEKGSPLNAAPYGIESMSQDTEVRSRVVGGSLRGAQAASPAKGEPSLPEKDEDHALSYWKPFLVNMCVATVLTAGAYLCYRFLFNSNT
- Assay Notes: Inhibition of human recombinant PTP1B assessed as inhibition of para-nitrophenyl phosphate to para-nitrophenol conversion at 100 uM by spectrophotometry
Calls of active or inactive are those of the source. The calls are words filed in the database; no cut-off is given here.
Your response should consist of one outcome taken from active, inactive

Examples from the recorded data:
Cc1ccc(-c2ccc(Cn3ccc4c3C(=O)NCCC4=O)cc2)cc1 | active
O=C1CCNC(=O)c2c1ccn2-c1ccccc1 | inactive
O=C1CCNC(=O)c2c1ccn2Cc1ccc(-c2ccccc2)cc1 | inactive
CCCCOc1ccc(-c2ccc(Cn3ccc4c3C(=O)NCCC4=O)cc2)cc1 | active
O=C1CCNC(=O)c2c1ccn2Cc1ccc(-c2cccc(O)c2)cc1 | inactive

Turning now to a further compound:
Exercise: Would you mind telling me which call this test gave "O=C1c2c(ccn2Cc2ccccc2)/C(=N/O)CCN1Cc1ccccc1" ?
Solution: inactive
